Entry source: a melting point compilation (Tetko et al.; mined from patent text by program, amines drawn as free bases though some values may be those of a salt)

MEASUREMENT KIND: melting point

Completed entries (count: 4):
                                        mol    assay_value
0  N#CCCn1cccc1-c1ccc2cnc(Nc3cccc(N4CCCC4=O)c3)nn12    60 to 67 °C
1      O=C(Cl)c1cccc(C(=O)Cl)c1[N+](=O)[O-]  129 to 132 °C
2  O=C(O)CCc1cc2cc(Cl)ccc2n1S(=O)(=O)c1ccccc1  165 to 168 °C
3  COc1cccc2c1nc(C(F)F)n2-c1nc(N2CCNCC2)nc(N2CC3CCC(C2)O3)n1  221 to 223 °C

Now, please, on to the next compound.
So what does the record say about melting point for CCCCc1nc2c(N)nc3c(c2n1CCNC(=O)c1cc(C(C)(C)C)c(O)c(C(C)(C)C)c1)NCCC3 ?
208 to 210 °C

* * *

Attribute: melting point

>>> df
                                   compound    assay_value
0     NCCc1cn(S(=O)(=O)c2ccccc2Cl)c2cccnc12  106 to 108 °C
1  CC(C)(O)c1nc(CO)n(Cc2ccc(-c3ccccc3-c3nnn[nH]3)cc2)c1C(=O)O  201 to 202 °C
2  CC1(C)COC1(Cn1cncn1)c1ccc(Cl)cc1 (centres undefined)   90 to 102 °C

Now, please, on to the next compound.
So what does the record say about melting point for COc1ccc(S(=O)(=O)C(CCCc2ccccc2)(CCCc2ccccc2)C(=O)NO)cc1 ?
118 to 120 °C

* * *

MEASUREMENT KIND: melting point

Completed entries (count: 3):
In [3]: df
Out[3]:
                                   molecule    assay_value
0  CCNc1nc(-c2ccc(F)cc2C)c2ccc(=O)n(-c3ccccc3F)c2n1  176 to 177 °C
1  O=C(NC1CCC1)c1cc(Nc2nc(N3CCCC3c3ccccn3)nc3ccoc23)[nH]n1 (stereo not given)         250 °C
2  CC(C)Oc1cc(CCC(=O)O)n(Cc2ccc(Cl)cc2Cl)n1  114 to 115 °C

So what does the record say about melting point for CSc1nc2c(OCc3ccccc3)cccc2n1CCCO ?
106 to 107 °C

Repeat for the following molecule: CC(=O)c1c(O)cc(C)cc1O
146 to 148 °C

* * *

Attribute: melting point

                                   compound  measurement_kind    assay_value
0    O=C(C=Cc1ccc(S(=O)(=O)Nc2ccccc2)cc1)NO     melting point  176 to 178 °C
1  CCCCc1nn(C(C)C(=O)NC)c(=O)n1Cc1ccc(-c2ccccc2-c2nnn[nH]2)cc1 (stereo not drawn)     melting point  153 to 155 °C
2  O=C(c1ccc(OC2CCOCC2)cc1)c1ccc([N+](=O)[O-])cc1     melting point  105 to 106 °C
3  CSCC(NCc1cc(Br)cc(Br)c1N)C(=O)O (stereo not drawn)     melting point         240 °C
4          COc1ccc(N=C2C=CC(=O)C=C2)c(CO)c1     melting point    87 to 89 °C
5  CC(Cl)C(=O)Nc1nc(-c2ccccc2)cs1 (stereo not drawn)     melting point    98 to 99 °C
6               OCC1=CC=C(COc2cccc(O)c2)SS1     melting point         116 °C

Now, please, on to the next compound.
So what does the record say about melting point for NS(=O)(=O)c1ccc(-c2cn(-c3nc(-c4ccc(Cl)cc4)cc(C(F)(F)F)n3)cn2)cc1 ?
324 °C

* * *

MEASUREMENT KIND: melting point

>>> df
                                   compound  measurement_kind    assay_value
0   CN1CC=C(c2c[nH]c3ccc(Sc4ccccc4)cc23)CC1     melting point  225 to 228 °C
1  CCOC(=O)C(=O)c1cc(OC)c(OCOC)c2c(Cc3ccccc3)cccc12     melting point    70 to 72 °C
2  CCOC(=O)C1=C(C)NC(CS)=C(C(=O)OCC)C1c1cccc([N+](=O)[O-])c1 (centres undefined)     melting point  145 to 147 °C

Now, please, on to the next compound.
So what does the record say about melting point for CCCC#Cc1cc(Cl)cc2c1OC(C(F)(F)F)C(C(=O)O)=C2 (centres undefined) ?
168 to 171 °C

* * *

Attribute: melting point

Completed entries (count: 2):
>>> df
                                   molecule    assay_value
0  CS(=O)(=S)OCCCCCCCCCCOS(C)(=O)=S (stereo not drawn)    45 to 52 °C
1  CC(C)(C)C(NC(=O)Cc1ccc(Cl)cc1)NC(=NC#N)Nc1cccc2cnsc12 (stereo not drawn)  135 to 137 °C

Now, please, on to the next molecule.
So what does the record say about melting point for CCOC(=O)c1cc2c(nc(C)n2C)c2c1CCC(OC)(c1ccccc1)O2 (stereo not drawn) ?
176 to 178 °C

* * *

Attribute: melting point

Completed entries (count: 4):
In [3]: df
Out[3]:
                                   compound    assay_value
0  Cc1ccccc1-c1c(NC(=O)Nc2ccc(F)cc2F)c(=O)n(C)c2ccc(Cl)cc12  163 to 165 °C
1          NCCNc1cc(-n2cccn2)nc(-c2cccs2)n1         147 °C
2  O=C(NC1(C2CC2)CC1)c1c(NC(=O)c2cc(C(F)(F)F)nn2-c2ncccc2Cl)ccc2cn[nH]c12  224 to 227 °C
3  O=C(Nc1ccc(F)c(F)c1)C12CC3CC(CC(C3)C1)C2  168 to 170 °C

So what does the record say about melting point for CN(C)CC(F)(F)[C@H](O)[C@@H](N)CC1CCCCC1 ?
47 to 49 °C

Repeat for the following compound: CC(C)C(NC(=O)N(C)Cc1ccccn1)C(=O)N(C(=O)C(NC(=O)N(C)Cc1nccs1)C(C)C)C(Cc1ccccc1)C(O)CCCc1ccccc1 (stereo not given)
158 to 160 °C

Repeat for the following compound: COc1cc2c(Nc3cc(CN4CCCC4)c(O)c(CN4CCCC4)c3)ncnc2c(OC)c1OC
189 to 191 °C

* * *

MEASUREMENT KIND: melting point

Completed entries (count: 10):
>>> df
                                   molecule    assay_value
0       COC(=O)Cc1cc(C(=O)c2ccccc2Cl)c(N)s1  102 to 105 °C
1  O=c1[nH]c2cc(C(F)(F)F)ccc2n1CCN1CCN(C(c2ccccc2)c2ccccc2)CC1         164 °C
2  CC(O)CN(CC(C)O)c1cc(C(C)(C)C)cc(C(C)(C)C)c1 (centres undefined)         139 °C
3                               CCOc1nccnn1    95 to 99 °C
4  CC(=O)OCC1OC(n2cc(C#N)c3c(Cl)nc(Cl)nc32)C(OC(C)=O)C1OC(C)=O (centres undefined)    70 to 75 °C
5  COc1cc(OC)c(S(=O)(=O)Cl)cc1-c1nc2nccnc2[nH]1  294 to 296 °C
6        COc1ccc2c(c1)CN(c1ccc3sccc3c1)C2=O  183 to 186 °C
7           CCOC(=O)c1ccc(-c2ccc(OC)cc2)cc1  103 to 104 °C
8              O=C(O)CCCCCCCCCCCCCCCCCCCCCI    71 to 72 °C
9  COc1ccc(CCc2ccncc2)c2c1OCC2C (centres undefined)    89 to 93 °C

So what does the record say about melting point for CCCc1c(OS(=O)(=O)N(C)C)cc2oc3cc(Cl)cn3c(=O)c2c1O ?
159 to 160 °C

Repeat for the following molecule: CCCCOC(=O)c1cc([N+](=O)[O-])ccc1N
91 to 93 °C

Repeat for the following molecule: Cn1c(=O)c(C#N)c(Cl)c2cc(Cl)ccc21
256 °C

Repeat for the following molecule: c1ccc2c(c1)C1CCC2c2c(OCC3CO3)cccc21 (centres undefined)
127 to 130 °C

Repeat for the following molecule: C#CCOc1cc(-c2nn(C)c(S(C)(=O)=O)c2C)c(F)cc1Cl
123 to 124 °C

Repeat for the following molecule: O=C1NCCN(N=Cc2ccco2)C1=O
193 to 197 °C

Repeat for the following molecule: CC12CCC(=O)C=C1CCN(C(=O)OCc1ccccc1)C2 (centres undefined)
128 °C

Repeat for the following molecule: CC(C)(C)OC(=O)COc1ccc(C(=O)CN2CCN(c3ccncc3)CC2)cc1
103 to 104 °C

Repeat for the following molecule: Nc1ccc(S(=O)(=O)N2CCN(c3ccc(F)cc3)CC2)cc1
180 to 182 °C
